- Measurement protocol: Plasma concentration in rat at 30 mg/kg, po after 2 hrs
- Type: ADME, organism-based
- Design: dose 30 mg/kg, route oral
Reported endpoint: concentration at 2 h (ng/mL)
Write the value in ng/mL as a bare number.

Req: # query: concentration at 2 h of entry COC[C@H]1CCCN1c1cc(NC(C)=O)nc(-n2nc(C)cc2C)n1
Resp: 4640

----------
- Measurement protocol: Permeability across human Caco-2 cells
- Format: ADME, cell-based
- Condition label: read-out: permeability
Reported endpoint: Papp
Returns: string containing the numeric result and its unit.

Req: # query: Papp of entry COC[C@H]1CCCN1c1cc(NC(C)=O)nc(-n2nc(C)cc2C)n1
Resp: 70 ×10⁻⁶ cm/s

----------
- Measurement protocol: Drug level in rat brain at 10 mg/kg, po after 1 hr
- Type: ADME, organism-based
- Design: dose 10 mg/kg, route oral
- Condition label: read-out: Drug uptake
Reported endpoint: concentration at 1 h (ng/g)
Write the value in ng/g as a bare number.

Req: # query: concentration at 1 h of entry COC[C@H]1CCCN1c1cc(NC(C)=O)nc(-n2nc(C)cc2C)n1
Resp: 863

----------
- Measurement protocol: Plasma concentration in rat at 10 mg/kg, po after 1 hr
- Type: ADME, organism-based
- Design: dose 10 mg/kg, route oral
Reported endpoint: concentration at 1 h (ng/mL)
Write the value in ng/mL as a bare number.

Req: # query: concentration at 1 h of entry COC[C@H]1CCCN1c1cc(NC(C)=O)nc(-n2nc(C)cc2C)n1
Resp: 1600

----------
- Measurement protocol: Solubility at pH >=2
- Type: physicochemical
Reported endpoint: solubility (µg/mL)
Write the value in µg/mL as a bare number.

Req: # query: solubility of entry COc1cncc(-c2cc(NC(C)=O)nc(-n3nc(C)cc3C)n2)c1
Resp: 10

----------
- Measurement protocol: Plasma concentration in rat at 3 mg/kg, po after 2 hrs
- Format: ADME, organism-based
- Parameters: dose 3 mg/kg, route oral
Reported endpoint: concentration at 2 h (ng/mL)
Write the value in ng/mL as a bare number.

Req: # query: concentration at 2 h of entry COC[C@H]1CCCN1c1cc(NC(C)=O)nc(-n2nc(C)cc2C)n1
Resp: 98

----------
- Measurement protocol: Ratio of drug level in brain to plasma in rat at 30 mg/kg, po after 2 hrs
- Format: ADME, organism-based
- Design: dose 30 mg/kg, route oral
- Condition label: brain and plasma
Reported endpoint: Kp at 2 h
No unit in the answer, please; the number alone is enough.

Req: # query: Kp at 2 h of entry COC[C@H]1CCCN1c1cc(NC(C)=O)nc(-n2nc(C)cc2C)n1
Resp: 0.45

----------
- Measurement protocol: Ratio of drug level in brain to plasma in rat at 10 mg/kg, po after 1 hr
- Format: ADME, organism-based
- Parameters: dose 10 mg/kg, route oral
- Condition label: brain and plasma, read-out: BPR
Reported endpoint: Kp at 1 h
No unit in the answer, please; the number alone is enough.

Req: # query: Kp at 1 h of entry COC[C@H]1CCCN1c1cc(NC(C)=O)nc(-n2nc(C)cc2C)n1
Resp: 0.51

----------
- Organism: Homo sapiens
- Measurement protocol: Selectivity ratio of Ki for human adenosine A1 receptor to Ki for human adenosine A2A receptor
Reported endpoint: Ratio Ki
No unit in the answer, please; the number alone is enough.

The cases that follow already have their Ratio Ki on record.
Req: # query: Ratio Ki of entry COC[C@@H]1CCC(C)N1c1cc(NC(C)=O)nc(-n2nc(C)cc2C)n1 (stereo not given in full)
Resp: 35

Req: # query: Ratio Ki of entry COC[C@H]1CCCN1c1cc(NC(=O)NC(C)C)nc(-n2nc(C)cc2C)n1
Resp: 29

Req: # query: Ratio Ki of entry COC[C@@H]1CCCN1c1cc(NC(C)=O)nc(-c2cccs2)n1
Resp: 12

Req: # query: Ratio Ki of entry COC[C@H]1C[C@H](OC)CN1c1cc(NC(C)=O)nc(-n2nc(C)cc2C)n1
Resp: 47

Now look at this entry.
Req: # query: Ratio Ki of entry CC(=O)Nc1cc(N2CCOCC2)nc(-n2nc(C)cc2C)n1
Resp: 26
